PROCEDURE SUMMARY: yeast display, Sf9 membrane polyspecificity reagent, FACS + sequencing; frameworks hold sequencing errors
PROPERTY MEASURED: polyreactivity (PSR sort gate)

Example entries begin here.
| SEQUENCE ENTRY | PROPERTY MEASURED | RESULT |
| --- | --- | --- |
| QVQLVESGGGLVQAGGSLRLSCAASGRTFQVNAMGWYRQAPGKERELVAAISASDGSTYADSVKGRFTISRDNAKNTVYLQMNSLKPEDTAVYYCNKAAYGGHRTSEQVGWVYLYDYWGQGTQVTVSS | polyreactivity (PSR sort gate) | low polyreactivity |
| QVQLVESGGGLVQAGGSLRLRCAASGSTFTYYAMGWYRQAPGKERELVAVSNKSGGRTNYADSVKGRFTISRDNAKNTVYLQMNSLKPEDTAVYYCNKVTRREGSYGYPSRYDYWGQGTQVTVSS | polyreactivity (PSR sort gate) | high polyreactivity |
| QVQLVESGGGLVQAGGSLRLSCAASGILSLYTMGCSIQAPGKERELVAAISFRGGNTYYADSVKGRFTISRDNAKNTVYLQMNSLKPEDTAVYYCNAVTRPWRRGYDYWGQGTQVTVSS | polyreactivity (PSR sort gate) | high polyreactivity |
| QVQRVESGGGLVQAGGSLRLSCAASGSIFGPYAMVWYRQAPGKERELVAAITWSVGSTYYADSVKGRFTISRDNAKTTVYLQMNSLKPEDTAVYYCNAGVLGVYTSYNGDDYWGQGTQVTVSS | polyreactivity (PSR sort gate) | low polyreactivity |
| QVQLVESGGGLVQAGGSLRLSCAASGRIFYYYAMGWYRQAPGKERELVAVISRGGRTKYADSVKGRFTISRDNAKNTVYLQMNSLKPEDTAVYYCAAYPSYYGDSGLRYDYWGQGTQVTVSS | polyreactivity (PSR sort gate) | high polyreactivity |

get_value(item= QVQLVESGGGLVQAGGSLRLSCAASGSIFKKYAMGWYRQAPGKERELVAAIRSSGGSTYYADSVKGRFTISRDNAKNTVYLQMNSLKPEDTAVYYCAAYVPQGYKLYYWGQGTQVSVSS , readout=polyreactivity (PSR sort gate)) returns high polyreactivity

get_value(item= QVQLVESGGGLLQAGGSLSLSCAASGGTFRYYTMGWYRQAPGKERELVASISGGGRTYYADSVKGRFTISRDNAKNTVYLQMNSLKPEDTAVYYCATYTRTFGYWGYGYWGQGTQVTVSS , readout=polyreactivity (PSR sort gate)) returns high polyreactivity

get_value(item= QVQLVESGGGLVQAGGSLRLSCAASGSTFSLNAMGWYRQAPGKERELVAAITRSGGSTYYADSVKGRFTISRDNAKNTVYLQMNSLKPEDTAVYYCAALPRWSHRYDDWGQGTQVTVSS , readout=polyreactivity (PSR sort gate)) returns high polyreactivity

----------
PROCEDURE SUMMARY: yeast display, Sf9 membrane polyspecificity reagent, FACS + sequencing; frameworks hold sequencing errors
PROPERTY MEASURED: polyreactivity (PSR sort gate)

| SEQUENCE ENTRY | polyreactivity (PSR sort gate) |
| --- | --- |
| QVQLVETGGGLVQAGGSLRLSCAASGSTFVRYTMGWYRQAPGKERELVAAISQRDSRTYYADSVKGRFTISRDNAKNTVYLQMNSLKPEDTAVYYCAARSWWYRSATYNYWGQGTQVTVSS | high polyreactivity |
| QVQLVESGGGLGQAGCSLRLSCAASGSTFAVYAMGWYRQAPGKERELVATITGSGGSTYYADSVKGRFTISRDNAKNPVYLQMNSLKPEDNAVYYCAAEVVAWSLYEDFKTYDYWGQGTQVTVSS | low polyreactivity |
| QVQLVESGGGLVQAGGSLRLSCAASGYTFQKYAMGWYIQAPGKERELVAAITRSGTRTYYADSVKGRFTISRDNAKNTVYLQMNSLKPEDTAVYYCAAETYYSIYDYWGQGTQVTVSS | high polyreactivity |
| QVQLVESGGGLVQAGGSLRLSCAASGRIFYNYAMGWYRQAPGKERELVAAITRRAGRTYYADSVKGRFTISRDNSKNTVYLQMNSLKPEDTAVYYCAKDEPGSSRVLYDSWGQGTQVTVSS | low polyreactivity |
| QVQLVESGGGLVQAGGSLRLSCAASGFTFGYYAMGWYRQAPGKERELVAAISSSGGSTYYADSVKGRFTLSRDNAKNTVYLQMNSLKPEDTAVYYCAVVVFSRVYRYFTSDYWGQGTQVTVSS | high polyreactivity |

# input for lookup
get_value(item= QVQLVESGGGLVQAGCSLRLSCAASGSNFYRNSMRWYRQAPGKERELVAGITTRGGSTYYADSVKGRFTISRDNAKNTVYLQMNSLKPEDTEVYYCNARSYTGSYFKYYYWGQGTQVTVSS , readout=polyreactivity (PSR sort gate)) returns high polyreactivity

----------
PROCEDURE SUMMARY: yeast display, Sf9 membrane polyspecificity reagent, FACS + sequencing; frameworks hold sequencing errors
PROPERTY MEASURED: polyreactivity (PSR sort gate)

Example entries begin here.
| SEQUENCE ENTRY | polyreactivity (PSR sort gate) |
| --- | --- |
| QVQLVESCGGLVQAGGSLRLSCAASGSIFSRNTMGWYRQAPCKERELVAGISSSGSRTYYADSVKGRFTISRDNSKNTVYLQMNSLKPEYTAVYYCAAEHQRSRGRRYYIGYDYWGQGTQVTVSS | low polyreactivity |
| QVQLVESGGGLVQAGGSLRLSCAASGRIFTRNAMGWYRQAPGKEREFVAAISWSGGSTYYADSVKGRFTISRDNAKNTFYLQMNSLKPEDTAVYFCAAKNSGGYVSWYDYWGQGTQVTVSS | low polyreactivity |
| QVQLVESGGGLVQAGGTLRLSCAASGSTFRRYAMGWYRHAPVKERELVAAISGRGGSTSYADSVKGRFTISRDNAKNTVYLQMNSLKPEDTAVYYCAADDKYFYPGNGYWGQGTQVTVSS | high polyreactivity |
| QVQLVESGGGLVQAGGSLRLSCAASGRTFCSYAMGWYRQAPGKERELVAAIRYRGGSTYYADSVKGRFTISRDNAKNTVDLQMNSLKPEDTAVYYCATNTWYYYQRMYYWGQGTQVTVSS | high polyreactivity |

# input for lookup
get_value(item= QVQLVESGGGLVQAGGSLRLSCAASGRTFKLYGMGWYRQAPVKEREFVAAITQGGGSTFYADSVKGRFTISRDNSKNTVYLQMNSLKPEDTAVYYCAARTQIFSRYRGFYSWGQGTQVTVSS , readout=polyreactivity (PSR sort gate)) returns high polyreactivity

----------
PROCEDURE SUMMARY: yeast display, Sf9 membrane polyspecificity reagent, FACS + sequencing; frameworks hold sequencing errors
PROPERTY MEASURED: polyreactivity (PSR sort gate)

Example entries begin here.
| SEQUENCE ENTRY | polyreactivity (PSR sort gate) |
| --- | --- |
| QVQLVESGGGLVQAGGSLRLSCAASGRILYGYALGWYRQAPGKERELVAAISWSGTRTYDADSVQGRFTISRDNAKNTVYLQMNSLKPEDTAVYYCAARTHVPAEYDYWGQGTQVTVSS | high polyreactivity |
| QVQLVESGGGLVQAGGSLRLSCAASGRTFSTYAMGWYRQAPGKERELVAAIDSGGGSTYYADSVKGRFTISRDNAKNTVYLQMNSLKPEDTAVYYCARDHYAPLARLRYDYWGQGTQVTVSS | low polyreactivity |
| QVQLVESGGGLVQAGGSLRLSCAASGSIYVYNAMGWYRQAPGKERELVAAIDTVGSTNYADSVKGRFTISRDNAKNTVYLQMNSLKPEDTAVYYCAVVTPYWSFYDQVIPSNYWGEGTQVTVSS | low polyreactivity |
| QVQLVESGGGLVQAGGSLRLSCAASGRIFPLYTMGWYRQAPGKERELVAAITSIGGSTYYADSVKGRFTISRDNAKNTVYLQMNSLKPEDTAVYYCNAQYRPLTSWYKMDYWGQGTQVTVSS | high polyreactivity |

get_value(item= HVQLEESGRGLVQAGGSLRLSCAASGRTFTSNAIGWYRQAPGKERELVAVITSGGSTNYADSVKGRFTISRDNAMNTVYLQMNSLKPEDTAVYYCNARSGRGQAYGYWGQGTQVTVSS , readout=polyreactivity (PSR sort gate)) returns high polyreactivity

----------
PROCEDURE SUMMARY: yeast display, Sf9 membrane polyspecificity reagent, FACS + sequencing; frameworks hold sequencing errors
PROPERTY MEASURED: polyreactivity (PSR sort gate)

Example entries begin here.
| SEQUENCE ENTRY | polyreactivity (PSR sort gate) |
| --- | --- |
| QVQLVESGGGLVQAGGSLRLSCAASGSTFFVYAMGWYRQSPGKERELVADITNSGGNTYYADSVKGRFTISRDNAKNTVFLQMISLKPEDTAVYYCSGEYWFTSYDSWGQGTQVTVSS | high polyreactivity |
| QVQLVESGGGLVQAGGSLRLSCAASGRTLGDYDMGSYRQAPGKERELVAAINWSGGDTYYADSVKGRFTISRDNANNTVYLQMNSLKPEDSAVYYCNADYVYTRYDYWGQGTQVTVSS | high polyreactivity |
| QVQLVESGGGLVQAGGSLRLSCAASGITFAYYAMGWYRQAPGKERELVAAIRGGTNTYYADSVKGRFTISRDNAKYTVYLQMNSLKPEDTGVYYCAVRLYLEMDYWGQGTQVTVSS | high polyreactivity |
| QVQLVESGGGLVQAGGSLRLSCAASGSTFGVNAMGWYRQAPGKERELVAAIRSAVPTYYADSVKGRFTISRDNAMNTVYLQMNSLKPEETAVYYCAARHRESQRRYDYWGQGTQVTVSS | high polyreactivity |

# input for lookup
get_value(item= QVQLVESGGGLVQAGGSLRLSCAASGSIIPYYAMGWYRQAPGKERELVAAISNSGGRTYYADSVKGRFTISRDNAKNTVYLQMNSLKPEDTAVYYCNAVPFYSKYDYWGQGTQVTVSS , readout=polyreactivity (PSR sort gate)) returns high polyreactivity
